# tgt: Torsin-1A (Homo sapiens) (UniProt O14656)
# Sequence (O14656 whole entry, looked up): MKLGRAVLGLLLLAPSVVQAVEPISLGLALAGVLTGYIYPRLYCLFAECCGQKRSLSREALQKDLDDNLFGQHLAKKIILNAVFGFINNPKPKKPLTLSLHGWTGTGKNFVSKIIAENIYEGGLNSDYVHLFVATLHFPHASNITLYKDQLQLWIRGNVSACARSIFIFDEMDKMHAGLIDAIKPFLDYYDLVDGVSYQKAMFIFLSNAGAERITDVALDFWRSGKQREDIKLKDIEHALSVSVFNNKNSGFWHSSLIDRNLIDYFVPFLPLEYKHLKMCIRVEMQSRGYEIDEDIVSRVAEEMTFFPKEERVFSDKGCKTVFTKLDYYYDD
# test summary: torsin A binders from cell lysate, primary screen, small-molecule microarray, wild-type, 635/667 nm (AID 1149)
# assay setup: COS7 hTOR1A-WT lysate, 635 nm fluorescence, higher = more signal

[
  {
    "molecule smiles": "O=C(NCC(F)(F)F)[C@@H]1c2ccccc2C(=O)N(Cc2ccc(OC(F)(F)F)cc2)[C@H]1c1ccc(CO)cc1",
    "composite z-score": 0.176
  },
  {
    "molecule smiles": "C=CCNC(=O)[C@H]1[C@@H]2C(=O)O[C@@H](c3ccccc3)[C@@H](c3ccccc3)N2[C@@H](c2ccc(O)cc2)[C@]12C(=O)N(C(=O)OCCOC)c1ccccc12",
    "composite z-score": 0.265
  },
  {
    "molecule smiles": "COC(=O)[C@@]1(Cc2ccccc2)[C@H]2c3cc(C(=O)N(C)C)n(Cc4c(CO)[nH]cc(C)c4=O)c3C[C@H]2CN1C(=O)c1ccccc1",
    "composite z-score": 0.376
  }
]

---

# test summary: basal RPMI8226 mitochondrial membrane potential changes, profiling panel, cell-based, JC-1 fluorescence, 24 h, 100 nL compound (AID 1169); further: test concentration not given here
# assay setup: RPMI8226 myeloma, JC-1 mitochondrial potential fluorescence, higher = more signal
Class membership depends on z-score alone; the intervals are low bracket = under -0.3, middle bracket = from -0.3 up to 0.06, high bracket = 0.06 and over

[
  {
    "compound": "CC(=O)NCCCC[C@@H]1NC(=O)[C@H]2C[C@@H](C(=O)NCCCC[N+](C)(C)C)[C@@H](c3cccc(OCCO)c3)N2C1=O",
    "cat": "low bracket"
  },
  {
    "compound": "C=CC[C@]1(C(=O)O)COC(c2ccc(OCCCO)cc2)=N1",
    "cat": "middle bracket"
  },
  {
    "compound": "COc1ccc([Si](C)(C)[C@@H]2[C@@H](CCn3cc([C@H](O)c4ccccc4)nn3)O[C@]3(C(=O)N(Cc4ccc(N5CCC5=O)cc4)c4ccccc43)[C@H]2C)cc1",
    "cat": "middle bracket"
  },
  {
    "compound": "CCCCO[C@H]1C[C@H]2C(I)=C[C@@H]1C(=O)[C@]21CO1",
    "cat": "high bracket"
  },
  {
    "compound": "COCCOC(=O)N1C(=O)[C@@]2(c3cc(C#CCCO)ccc31)[C@H](C(=O)Nc1nc3ccccc3s1)[C@H]1C(=O)O[C@H](c3ccccc3)[C@H](c3ccccc3)N1[C@@H]2c1ccccc1OCCO",
    "cat": "middle bracket"
  },
  {
    "compound": "O=C(NCC(F)(F)F)[C@@H]1c2ccccc2C(=O)N(Cc2ccccc2C(F)(F)F)[C@H]1c1ccc(CO)cc1",
    "cat": "middle bracket"
  },
  {
    "compound": "CN(C)C(=O)C1N=C(c2ccc(OCCCO)cc2)N(c2ccccc2)O1 (stereo not given)",
    "cat": "middle bracket"
  },
  {
    "compound": "[N-]=[N+]=Nc1ccccc1C[C@]1(C(=O)N2CCOCC2)N=C(c2ccc(OCCCO)cc2)O[C@H]1c1ccccc1",
    "cat": "low bracket"
  },
  {
    "compound": "O=C1OCC=C[C@H]2OC34C=CCN(c5ccc(Cl)cc5)C(=O)[C@H]3N(CCO)C(=O)[C@@H]4[C@@H]12 (stereo not given in full)",
    "cat": "high bracket"
  },
  {
    "compound": "CCOC(=O)C[C@H]1[C@H](OC(=O)c2ccccc2-c2ccccc2)[C@@H](NC(=O)C2CCCCC2)c2cc(OCCCO)ccc2N1C(=O)Cc1ccc(OC)cc1",
    "cat": "middle bracket"
  },
  {
    "compound": "COC(=O)[C@@]1(Cc2ccccc2)[C@H]2c3cc(C(=O)N(C)C)n(Cc4c(CO)[nH]cc(C)c4=O)c3C[C@H]2CN1C(=O)c1ccccc1",
    "cat": "high bracket"
  },
  {
    "compound": "CCOC(=O)C[C@H]1[C@H](OC(=O)c2ccc(C(=O)c3ccccc3)cc2)[C@@H](NC(=O)Cc2ccc(OC)cc2)c2cc(OCCCO)ccc2N1C(=O)c1ccccc1",
    "cat": "high bracket"
  },
  {
    "compound": "COC(=O)c1nc2oc1CC[C@@H](CO)NC(=O)N(C)Cc1cnnn1C[C@H](Cc1ccccc1)NC2=O",
    "cat": "low bracket"
  },
  {
    "compound": "CC(C)N1C(=O)C[C@@](C(=O)NCCCN(C)C)(c2ccc([N+](=O)[O-])cc2)[C@H]1c1ccc(CO)cc1",
    "cat": "high bracket"
  }
]

---

# test summary: modulators of HCV replicon luciferase signal, primary screen, HCV replication inhibitor project, Huh7 cells, luciferase reporter (AID 1109);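 further: huh7 hepatoma cells harbouring a luciferase neomycin HCV replicon reporter; luciferase luminescence as measure of HCV replicon replication; test concentration not given here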
# assay setup: 48 h, higher = more signal
Returns satisfied if the recorded z-score is greater than or equal to -1, and not satisfied otherwise.

[
  {
    "compound": "CCCCCCCCCCC(O)C1C=CC2C(=O)N(C)C(=O)C2N1NC(=O)OC(C)(C)C (stereo unspecified)",
    "cat": "not satisfied"
  },
  {
    "compound": "C=CCC(OC(C)=O)[C@@H]1[C@@H](N(Cc2ccc(-c3cccc(C(F)(F)F)c3)o2)C(=O)c2ccc(-c3ccccc3)cc2)c2cc(OCCCO)ccc2N1C(=O)c1ccc2ccccc2n1 (stereo partly specified)",
    "cat": "satisfied"
  },
  {
    "compound": "CCOC(=O)C[C@H]1[C@H](OC(=O)c2ccc(C(=O)c3ccccc3)cc2)[C@@H](NC(=O)Cc2ccc(OC)cc2)c2cc(OCCCO)ccc2N1C(=O)c1ccccc1",
    "cat": "not satisfied"
  },
  {
    "compound": "CC(CO)N1C(=O)[C@@H]2[C@H]3C(=O)OCC=C[C@H]3OC23C=CCN(CCN2CCOCC2)C(=O)[C@@H]13 (stereo partly specified)",
    "cat": "satisfied"
  },
  {
    "compound": "COC(=O)C(CC#Cc1ccc2c(c1)[C@]1(C(=O)N2)[C@H](C(=O)N2CCN(c3ncccn3)CC2)[C@H]2C(=O)O[C@H](c3ccccc3)[C@H](c3ccccc3)N2[C@@H]1c1ccc(OCCO)cc1)C(=O)OC",
    "cat": "not satisfied"
  },
  {
    "compound": "O=C(NCc1ccccc1)[C@@H]1c2ccccc2C(=O)N(Cc2ccccc2C(F)(F)F)[C@H]1c1ccc(CO)cc1",
    "cat": "satisfied"
  }
]

---

# test summary: small-molecule microarray binders of probe aNog, primary screen, biochemical, biotinylated probe, 635/667 nm fluorescence (AID 1115);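 further: probe is biotinylated aNog protein used at 0.15 µg/mL for 1 h at 4 C; z-score combines 667 nm fluorescence of each spot with its signal to noise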
# assay setup: higher = more signal
Returns yes (1) if the recorded composite z-score is greater than or equal to 0.06, and no (0) otherwise.

[
  {
    "compound": "COCCOC(=O)N1C(=O)[C@@]2(c3cc(C#Cc4ccc(OC)cc4)ccc31)[C@H](C(=O)Nc1nc3ccccc3s1)[C@H]1C(=O)O[C@H](c3ccccc3)[C@H](c3ccccc3)N1[C@@H]2c1ccc(O)cc1",
    "cat": "no (0)"
  },
  {
    "compound": "Cc1ccc(S[C@]2(C(=O)NCCCN(C)C)CC(=O)N(C3CCCCC3)[C@@H]2c2ccc(CO)cc2)cc1",
    "cat": "no (0)"
  },
  {
    "compound": "C=C(/C(=C/C[C@H](OC(=O)c1ccncc1)c1ccc(CO)o1)c1cc(C(=O)OC)ccc1OC)C(C)C",
    "cat": "no (0)"
  },
  {
    "compound": "Cc1ccc(S[C@]2(C(=O)O)CC(=O)N(Cc3cc(C(F)(F)F)cc(C(F)(F)F)c3)[C@@H]2c2ccc(CO)cc2)cc1",
    "cat": "no (0)"
  },
  {
    "compound": "CN1C(=O)C2C=CC(C(O)C#Cc3ccccc3)N(Nc3ccccc3)C2C1=O (stereo not given)",
    "cat": "yes (1)"
  },
  {
    "compound": "COCCCNC(=O)[C@@]1(Cc2ccccc2N=[N+]=[N-])COC(c2ccc(OCCCO)cc2)=N1",
    "cat": "yes (1)"
  },
  {
    "compound": "CC(=O)NCCCC[C@@H]1NC(=O)[C@H]2C[C@@H](C(=O)NCCCC[N+](C)(C)C)[C@@H](c3cccc(OCCO)c3)N2C1=O",
    "cat": "no (0)"
  },
  {
    "compound": "C=C[C@@H](OC)[C@H](OC(=O)Nc1ccc(SC)cc1)c1ccc(O)c(F)c1",
    "cat": "no (0)"
  },
  {
    "compound": "COc1ccc([Si](C)(C)[C@@H]2[C@@H](CC(=O)N3Cc4ccccc4C[C@H]3CO)O[C@]3(C(=O)N(C)c4ccccc43)[C@H]2C)cc1",
    "cat": "no (0)"
  },
  {
    "compound": "COC(=O)c1c(CC[C@@H](CO)NC(=O)N[C@H](Cn2cc(C3(O)CCCCC3)nn2)C(C)C)oc(C(C)=O)c1C(=O)OC",
    "cat": "yes (1)"
  },
  {
    "compound": "COC(=O)c1nc2oc1CC[C@@H](CO)NC(=O)N(C)Cc1cnnn1C[C@H](Cc1ccccc1)NC2=O",
    "cat": "no (0)"
  },
  {
    "compound": "CCCCCCc1nc(-c2cc(C)c(OC)c(C)c2)c(C)c2c1[Si](C(C)C)(C(C)C)OC2",
    "cat": "yes (1)"
  },
  {
    "compound": "C#CCN([C@@H](Cc1ccc(O)cc1)C(=O)OC)[C@@H](/C=C/C1CC1)[C@H](O)Cc1ccccc1",
    "cat": "no (0)"
  },
  {
    "compound": "CN1C(=O)C2C=CC(C(O)c3ccc(F)cc3)N(Nc3ccccc3)C2C1=O (stereo not given)",
    "cat": "no (0)"
  },
  {
    "compound": "COCCOC(=O)N1C(=O)[C@@]2(c3cc(C#CCNC(N)=O)ccc31)[C@H](C(=O)N1CCc3cc(OC)c(OC)cc3C1)[C@H]1C(=O)O[C@H](c3ccccc3)[C@H](c3ccccc3)N1[C@@H]2c1ccccc1OCCO",
    "cat": "yes (1)"
  }
]
